Every entry's value here was drawn from ChEMBL document CHEMBL2021839.

biological target: Acetylcholinesterase (Electrophorus electricus); test: Inhibition of electric eel AChE using acetylthiocholine as substrate at 350 uM by Ellman's method
OBSERVED PROPERTY: inhibition (%)

COMPOUND: Cc1nc(CCCCCCCC(O)CCCCO)ccc1O (racemic)
TEST TARGET: Acetylcholinesterase (Electrophorus electricus)
MEASURED RESULT: 28

COMPOUND: CCCCCC(O)CCCCCCc1ccc(O)c(C)n1 (racemic)
TEST TARGET: Acetylcholinesterase (Electrophorus electricus)
MEASURED RESULT: 52

COMPOUND: CNC(=O)Oc1ccc2c(c1)[C@]1(C)CCN(C)[C@@H]1N2C
TEST TARGET: Acetylcholinesterase (Electrophorus electricus)
MEASURED RESULT: 94

COMPOUND: CCCCC(O)CCCCCCCc1ccc(O)c(C)n1 (racemic)
TEST TARGET: Acetylcholinesterase (Electrophorus electricus)
MEASURED RESULT: 19

COMPOUND: Cc1nc(CCCCCCC(O)CCCCCO)ccc1O (racemic)
TEST TARGET: Acetylcholinesterase (Electrophorus electricus)
MEASURED RESULT: 51

COMPOUND: COC(=O)CCCc1ccc(O)c(C)n1
TEST TARGET: Acetylcholinesterase (Electrophorus electricus)
MEASURED RESULT: 40

---

Measured log10 of MIC by item
biological target: Acetylcholinesterase (Electrophorus electricus) (UniProt O42275); experiment: Inhibition of electric eel AChE assessed as minimum concentration required to inhibit enzyme activity after 20 mins by TLC bioautographic assay
Sequence (O42275 24-633 limits assumed): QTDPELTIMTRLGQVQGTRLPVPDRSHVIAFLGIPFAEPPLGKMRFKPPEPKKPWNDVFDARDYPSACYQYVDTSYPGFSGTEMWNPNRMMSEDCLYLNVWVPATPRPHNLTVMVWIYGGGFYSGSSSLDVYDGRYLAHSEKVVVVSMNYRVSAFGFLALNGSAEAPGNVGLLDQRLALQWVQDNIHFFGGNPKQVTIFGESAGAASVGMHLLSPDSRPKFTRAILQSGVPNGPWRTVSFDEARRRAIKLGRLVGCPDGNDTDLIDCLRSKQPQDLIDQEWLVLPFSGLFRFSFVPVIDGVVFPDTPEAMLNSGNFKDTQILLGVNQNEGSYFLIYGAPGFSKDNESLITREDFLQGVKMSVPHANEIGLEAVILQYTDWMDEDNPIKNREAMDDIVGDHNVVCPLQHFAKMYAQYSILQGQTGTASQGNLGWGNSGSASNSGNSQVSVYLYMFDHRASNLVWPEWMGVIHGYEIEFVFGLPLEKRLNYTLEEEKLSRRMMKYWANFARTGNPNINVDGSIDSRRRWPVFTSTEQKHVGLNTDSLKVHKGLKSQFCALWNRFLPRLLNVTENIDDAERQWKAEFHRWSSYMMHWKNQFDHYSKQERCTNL
OBSERVED PROPERTY: log10 of MIC (log10 of the value in µg)

MOLECULE: CNC(=O)Oc1ccc2c(c1)[C@]1(C)CCN(C)[C@@H]1N2C
log10 of MIC: -1.00
//
MOLECULE: COC(=O)CCCc1ccc(O)c(C)n1
log10 of MIC: 0.48
//
MOLECULE: CCCCCC(O)CCCCCCc1ccc(O)c(C)n1 (racemic)
log10 of MIC: -0.10
//
MOLECULE: Cc1nc(CCCCCCC(O)CCCCCO)ccc1O (racemic)
log10 of MIC: 0.18
//
MOLECULE: CCCCC(O)CCCCCCCc1ccc(O)c(C)n1 (racemic)
log10 of MIC: 0.18
//
MOLECULE: Cc1nc(CCCCCCCC(O)CCCCO)ccc1O (racemic)
log10 of MIC: 0.78
